pKi: −log10 of the molar value.
The entries that follow carry pKi values tested on UniProt:P41968, drawn from several published reports.
Mark y for reported pKi of 7 or greater; mark n for anything smaller.

Prompt: In plain terms: is recorded pKi at least 7 for C#Cc1ccc2c(c1)C(=O)N[C@@H](Cc1c[nH]cn1)C(=O)N[C@H](Cc1ccccc1)C(=O)N[C@@H](CCCNC(=N)N)C(=O)N[C@@H](Cc1c[nH]c3ccccc13)C(=O)N[C@H](C(N)=O)CS2 ?
Completion: n

Prompt: # check: pKi of N[C@H](Cc1ccc(F)cc1)C(=O)NCCC(Cn1cncn1)C1CCCCC1 (stereo partly specified) is greater than or equal to 7
Completion: n

Prompt: // inclusive: pKi at least 7? input: CC(=O)N[C@H](Cc1ccc(O)cc1)C(=O)N[C@H](Cc1ccccc1)C(=O)N1C[C@H](OCc2ccccc2)C[C@@H]1CCCN=C(N)N
Completion: y

Prompt: Decide: is the reported value of pKi for CC(=O)N[C@@H](Cc1ccc(O)cc1)C(=O)N[C@@H](CCCNC(=N)N)C(=O)N[C@H]1CSSC[C@@H](C(N)=O)NC(=O)[C@H](Cc2c[nH]c3ccccc23)NC(=O)[C@H](CCCNC(=N)N)NC(=O)[C@@H](Cc2ccccc2)NC(=O)[C@H](Cc2cncn2C)NC(=O)[C@H](CCC(=O)O)NC1=O equal to or greater than 7?
Completion: n

Prompt: In plain terms: is recorded pKi at least 7 for N=C(N)NCCC[C@H](NC(=O)[C@H](Cc1ccccc1)NC(=O)[C@H](Cc1c[nH]cn1)NC(=O)c1ccccc1)C(=O)N[C@@H](Cc1c[nH]c2ccccc12)C(N)=O ?
Completion: n

Prompt: Could you tell me if the measured pKi of CCC(O)(CC)c1ccccc1N1CCN(C(=O)[C@@H](Cc2ccc(Cl)cc2Cl)NC(=O)CN(C)C)CC1 reaches 7 or more?
Completion: n

###

Reported pKi on Melanocortin receptor 3 (Homo sapiens, UniProt P41968) for assorted molecules, compiled from publications.
Sequence (P41968 whole entry): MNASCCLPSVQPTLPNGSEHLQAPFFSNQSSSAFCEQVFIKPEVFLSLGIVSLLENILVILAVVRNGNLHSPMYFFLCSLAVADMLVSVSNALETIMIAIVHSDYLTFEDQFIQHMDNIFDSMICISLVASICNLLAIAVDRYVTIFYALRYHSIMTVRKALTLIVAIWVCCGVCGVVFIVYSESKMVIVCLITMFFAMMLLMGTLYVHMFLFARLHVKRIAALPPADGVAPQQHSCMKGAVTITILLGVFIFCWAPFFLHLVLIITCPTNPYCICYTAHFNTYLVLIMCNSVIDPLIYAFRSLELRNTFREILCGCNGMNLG
Would you please state pKi, meaning minus log10 of the concentration in mol/L, as a bare number?

Prompt: Jot down pKi (Melanocortin receptor 3 (Homo sapiens, UniProt P41968)) of CCN(CC)CC(c1ccccc1F)N1CCN(C(=O)[C@@H](Cc2ccc(Cl)cc2)NC(=O)[C@H]2Cc3ccccc3CN2)CC1 (stereo partly specified) .
Completion: 5.15

Prompt: Fill in pKi for CC(=O)N[C@@H](Cc1cnc[nH]1)C(=O)N[C@H](Cc1ccccc1)C(=O)N1C[C@H](OCc2ccc3ccccc3c2)C[C@@H]1CCCN=C(N)N tested with Melanocortin receptor 3 (Homo sapiens, UniProt P41968).
Completion: 7.59

Prompt: Jot down pKi (Melanocortin receptor 3 (Homo sapiens, UniProt P41968)) of N=C(N)NCCC[C@H]1C[C@@H](OCc2ccccc2)CN1C(=O)[C@@H](Cc1ccccc1)NC(=O)C1Cc2ccccc2CN1 (single isomer, unassigned) .
Completion: 6.33

Prompt: State pKi (Melanocortin receptor 3 (Homo sapiens, UniProt P41968)) of CCCC[C@H](NC(=O)[C@@H](NC(=O)[C@@H](N)Cc1ccc(O)cc1)C(C)C)C(=O)NCC(=O)NC(C)(C)C(=O)N[C@@H](Cc1ccccc1)C(=O)N[C@@H](CCCN=C(N)N)C(=O)N[C@H](Cc1ccc2ccccc2c1)C(=O)N[C@@H](CC(=O)O)C(=O)N[C@@H](CCCN=C(N)N)C(=O)N[C@@H](Cc1ccccc1)C(=O)NCC(N)=O .
Completion: 5.47

Prompt: Write down measured pKi (Melanocortin receptor 3 (Homo sapiens, UniProt P41968)) for this molecule. CNC(=O)[C@H](Cc1ccc2ccccc2c1)NC(=O)[C@H](CCCN=C(N)N)NC(=O)[C@H](CC[C@H](Cc1ccc(O)cc1)NC(C)=O)Cc1ccccc1
Completion: 4.61

Prompt: Tell me pKi of CCCC[C@H](NC(=O)[C@@H](NC(=O)[C@@H](N)Cc1ccc(O)cc1)C(C)C)C(=O)N[C@H]1CC(=O)NCCCC[C@@H](C(=O)N[C@@H](CCCN=C(N)N)C(=O)N[C@@H](Cc2ccccc2)C(=O)NCC(N)=O)NC(=O)[C@H](Cc2c[nH]c3ccccc23)NC(=O)[C@H](CCCN=C(N)N)NC(=O)[C@H](Cc2ccccc2)NC(=O)[C@H](Cc2c[nH]cn2)NC1=O when tested on Melanocortin receptor 3 (Homo sapiens, UniProt P41968).
Completion: 8.26

Prompt: Consider the molecule CC(C)C[C@H](NC(=O)CN)c1cc(C(F)(F)F)ccc1N1CCN(C(=O)CCc2ccc(Cl)cc2Cl)CC1 tested on Melanocortin receptor 3 (Homo sapiens, UniProt P41968); state its pKi.
Completion: 5.92

Prompt: Quote Melanocortin receptor 3 (Homo sapiens, UniProt P41968) pKi for entry CC(C)(C)C(=O)N[C@@H](Cc1cnc[nH]1)C(=O)N[C@@H](Cc1ccccc1)C(=O)N[C@@H](CCCNC(=N)N)C(=O)N[C@@H](Cc1c[nH]c2ccccc12)C(N)=O .
Completion: 6.89

Prompt: Please indicate recorded pKi of N=C(N)NCCC[C@H](CC1CCCCC1)NC(=O)[C@H](N)Cc1ccc(F)cc1 measured with Melanocortin receptor 3 (Homo sapiens, UniProt P41968).
Completion: 5.04

Prompt: Jot down pKi (Melanocortin receptor 3 (Homo sapiens, UniProt P41968)) of CNC(=O)[C@H](Cc1ccc2ccccc2c1)NC(=O)[C@H](CCCN=C(N)N)NC(=O)[C@H](N)Cc1ccc(F)cc1 .
Completion: 5.94
